assay.explanation: microbe, parasite or virus in culture
measurement.parameters: Mycobacterium tuberculosis, 96 h, read-out: pIC50 (converted)
Field: IC50. Provide a value for each of the compounds that follow.

COc1c(Cl)cc(NC(=O)C2COCCN2)cc1Cl (stereo not drawn)	> 501 µM
O=C(c1ccc(Cn2cnnn2)cc1)N1CCC(c2ccncc2)CC1	> 50.1 µM
COc1cc(Oc2ccc(C(F)(F)F)cn2)ccc1CN1CCCC1	16.6 µM

Could you tell me IC50 for each of these compounds? They are listed below.
1. CC(C)c1nsc(NC2CCOC3(CCCC3)C2)n1 (stereo not drawn)
2. N#CC1(C(=O)N2CCc3sccc3C2)CCCC1
3. CN(C1(C#N)CCC1)S(=O)(=O)c1cccs1
4. COc1ccc2c(c1)CCN2C(=O)C(C)(C)C#N

1. 6.74 µM
2. 167 µM
3. > 501 µM
4. 293 µM

Provide IC50 for all items below, preserving their order.
1. CC(NCc1cccc2c1OCCO2)c1ccncc1 (stereo not drawn)
2. CCOCc1cnc2n1CCN(C(=O)Cc1ccccn1)C2C (stereo not drawn)
3. Cc1n[nH]c(C)c1CCNC(=O)C1CCCN(Cc2ccco2)C1 (stereo not drawn)
4. COCCN1CCC(CNCc2c[nH]nc2C(C)(C)C)CC1
5. CC(C)c1ccc2c(c1)C(N)C(=O)N2 (stereo not drawn)
6. CN(C)c1cc(CNC(=O)c2ccc(Br)o2)ccn1

153 µM
> 50.1 µM
> 50.1 µM
> 50.1 µM
> 501 µM
> 501 µM

###

System: Leishmania donovani
assay.explanation: Leishmania intramacrophage assay
Assay type: functional, organism-based
measurement.name: pIC50
Answers are plain numbers.

Cc1c(C)c(C)c2[nH]c(-c3cn(C4CCNCC4)nn3)nc2c1C	4.511
CCc1ccc(-c2ncc3c(n2)N(C)CCN(CCN(C)C)C3=O)cc1	4.813
CCCc1cc(=O)[nH]c(-n2nc(C3CC3)cc2N)n1	4.51
Cc1cc2nc(-c3cn(C4CCNCC4)nn3)[nH]c2cc1C	4.64
Clc1ccccc1-c1cc(CNc2ncnc3c2CCNCC3)no1	4.821

Working through the 3 compounds below one at a time, give pIC50 for each.
1. Clc1cccc(C2CCN(c3ncnc4c3CCNC4)C2)c1 (stereo unspecified)
2. Cc1ccc(Oc2c(F)cccc2OC[C@@H](N)CC(C)C)cc1
3. CC(C)Nc1nc2c(c(NC3CC3)n1)CCN(C1CCOCC1)CC2

[4.674, 5.171, 4.789]

###

measurement.target: ClpP1P2 (Mycobacterium tuberculosis (strain ATCC 25618 / H37Rv), UniProt P9WPC3+P9WPC5)
assay.explanation: in vitro assay to detect presence of AMC directly proportional to the activity of ClpP1P2. GHDDI collaboration.
pIC50: −log10 of the molar value.
Assign pIC50 to each entry below.

Worked cases, pIC50 given:
Cc1ccc(-c2nc(C3CCN(C(=O)c4cnn(C)c4)CC3)no2)cn1	< 4.00
CN(C)c1cncc(-c2ccnc3c2ccn3C)n1	< 4.00

Fill in pIC50 for each of the 3 compounds listed.
1. O=C(c1nc(=O)[nH]c2ccccc12)N1CCCC2(CCNC2)C1 (stereo unspecified)
2. CC(O)CCn1ccc2[nH]c(=O)c(C#N)cc2c1=O (stereo unspecified)
3. Cc1ccoc1C(=O)NC1CCN(C(=O)Nc2ccccn2)CC1

< 4.00
< 4.00
< 4.00

###

Test system: Leishmania donovani
assay.explanation: Leishmania intramacrophage assay
Assay type: functional, organism-based
measurement.parameters: Leishmania donovani
Rule for this label: condition met means IC50 is less than 20 µM; condition not met means IC50 is at least 20 µM.

CN1CCC(N(Cc2ccco2)S(=O)(=O)c2cc(Br)ccc2Br)CC1	condition met
CC(C)N1CCN(c2ccc3ccc(C(=O)NC4CCCC4)cn23)CC1	condition not met
Cc1sc2nc(CCN)nc(N(CCN(C)C)CC3CCCO3)c2c1C (stereo not drawn)	condition not met
CCC(N)C(=O)N1CCC(OCc2ccc(Cl)c(Cl)c2)CC1.Cl (stereo not drawn)	condition not met

Threshold test, IC50 < 20 µM: O=C(C1CNCCO1)N1CCCC(c2ccccc2)(c2ccccc2)C1 (stereo not drawn)
condition met

Now consider CN(C)S(=O)(=O)c1ccc(-c2nc(C#N)c(NC3CCCCC3)o2)o1 and answer again.
condition not met

And for Cc1nnc(NCC2(c3ccccc3)CCOCC2)c(C#N)c1C ?
condition not met

Now consider COCCN(C)C1COC2(CCN(Cc3cccc(F)c3)CC2)C1 (stereo not drawn) and answer again.
condition not met

Can you handle O=C(O)C1CCCN1c1nc(-c2ccc(Cl)c(Cl)c2)cc(C(F)(F)F)n1 (stereo not drawn) next?
condition not met

What do you get for Cc1ccc2c(n1)N(Cc1cccnc1)CCN(Cc1cnn(C)c1)C2 ?
condition not met

Check Cc1nc(NCc2noc(C3CCCO3)n2)c2ccsc2n1 (stereo not drawn) too.
condition not met

Record: c1cnc(-c2nc(CN3CCCC(N4CCCC4)C3)cs2)nc1 (stereo not drawn)
condition not met

What about Cc1nc(NCc2nncn2C2CC2)c2c(CC(C)C)csc2n1 ?
condition not met

Try this molecule next: COc1cc(C)c(-c2ccc(F)c3c2OC(CN)C3)cc1C (stereo not drawn)
condition met

Quick one: CC(C)c1nc(-c2cc(C(=O)NCCN(C)C)c3ccccn23)cs1.O=C(O)C(F)(F)F
condition met

Thanks! And O=C(O)CN1CCC(F)(F)C2(CCN(c3ccccc3)C2)C1 (stereo not drawn) ?
condition not met

Could you do the same for CN(C)C(=O)N1CCN(c2ccc3ccc(C(=O)NC4CC4)cn23)CC1 , please?
condition not met

###

System: Mycobacterium tuberculosis
assay.explanation: Cornell M. t heat shock assay
Type: functional, organism-based
measurement.parameters: Mycobacterium tuberculosis
What pIC50 was measured for each of the following?
Give bare numbers, as −log10 of the molar value.

Use these answered entries as a reference point.
CCCn1cc(-c2ccnc(NC3CCCc4ccccc43)n2)c(C)n1 (stereo unspecified)	4.67
Cl.Fc1cccc(CN2CCC(c3cc4ncccc4cn3)CC2)c1F	4.36
COc1cc(C(=O)Nc2nc(C)no2)ccc1OC(F)F	4.38
c1ccc2nc(CN3CCCC3c3noc(C4CC4)n3)ccc2c1 (stereo unspecified)	4.62
COc1cccc(CNCc2nc3ccccc3c(=O)[nH]2)c1	4.17

Hi there! I need pIC50 for each item below, if you can.
1. c1ccc(-c2nc(CN3CCCC(Cn4cncn4)C3)cs2)cc1 (stereo unspecified)
2. Cc1ccc(Oc2cc(F)ccc2O[C@@H]2CCC[C@@H](N)[C@H]2O)cc1
3. Cl.NC1CCc2nc(-c3ccncc3)nc(Nc3cccc(F)c3)c2C1 (stereo unspecified)
4. COc1ccc(F)c(CN(CCCn2ccnc2)Cc2ccc(C)s2)c1.O=C(O)CC(O)(CC(=O)O)C(=O)O

1: 4.26; 2: 4.47; 3: 4.30; 4: 4.56

###

assay.explanation: microbe, parasite or virus in culture
measurement.parameters: Mycobacterium tuberculosis, 72 h, read-out: pIC50 (converted)
Field: IC50. Provide a value for each of the compounds that follow.
Numbers only, in µM.

Would you please look over these solved cases?
O=C(NC1=NCCS1)c1sccc1C1CC1	232
O=C1N(Cc2ccccc2)CCN1S(=O)(=O)Cl	259

Turning now to a further record.
Which measured IC50 value corresponds to CC(C)CCNC(=O)Cn1c(=O)oc2ccccc21 ?
401

###

System: Schistosoma mansoni
assay.explanation: High throughput screening of compounds against Schistosoma mansoni motility
Type: functional
Design: dose or concentration left out as unconfirmed
Please go through the items and note down their Percent Effect.
Numbers only, in %.

Study these solved cases before continuing.
O=C(c1cccc(S(=O)(=O)NCCCc2ccco2)c1)N1CCOCC1	-44.89
Cc1csc(N2CCN(CCc3ccccn3)CC2C)n1 (centres undefined)	-16.94
O=C(Cc1ccc(O)c(Cl)c1)N1CCN(CC2CC2)[C@@H]2CS(=O)(=O)C[C@@H]21	-40.54
c1cc(C2CCCN2Cc2nnnn2C2CC2)cs1 (centres undefined)	-76.39
Cc1cccnc1NC(=O)CSc1ccc2c(c1)OCCO2	-40.06
CN(C(=O)Cn1nc(-c2ccc(F)cc2)oc1=O)C1CCS(=O)(=O)C1 (centres undefined)	-46.67

Please give Percent Effect, item by item, for the list that follows.
1. CCCC(C)(C)NC(=O)c1ccc(CC2CC(=O)NC2=O)cc1 (centres undefined)
2. CS(=O)(=O)CCSc1cccc(C#N)c1
3. COc1cc(CN(C)C(=O)Cc2c(C)nn(C)c2C)ccc1OC(F)F
4. CS(=O)(=O)N1CCC(Oc2ccc(C(=O)N3CCSCC3)cc2Cl)CC1
5. O=C(CSc1ccncc1)N1C[C@H]2CC[C@@H]1CN(Cc1cccnc1)C2
6. CSc1ccccc1CN1CCCn2nc(CNC(=O)N(C)C)cc2C1

-6.374
-35.13
-34.16
-0.7709
-27.79
-17.72

Answer for every listed entry: what is its Percent Effect? The entries follow.
1. COc1ccc(NC(=O)N2CCN(c3ncccn3)CC2)cn1
2. Cc1ccc(N2CCN(C(=O)COc3ccccc3)CC2)nn1
3. CCn1ccnc1-c1nc2cc(S(=O)(=O)N3CCCC3)ccc2n1C
4. COc1ccc(CN(C)C(=O)CCc2c(C)nc(C)[nH]c2=O)cc1OC
5. O=C(Nc1ccnc(OC2CCOC2)c1)C1CCC1 (centres undefined)
6. CC(C)c1nc(CN(C)C2CCN(Cc3nc(C4CC4)no3)C2)no1 (centres undefined)
7. CC(=O)NCCc1ccc(S(=O)(=O)N(CC(C)C)C(C)C)s1
8. Cc1csc(N2CCN(Cc3cnc(C)s3)CC2C)n1 (centres undefined)

[-75.2, -51.88, -59.51, -19.42, -37.1, -10.87, 41.16, -30.28]

// each listed compound needs a value for Percent Effect
1. CCCS(=O)(=O)c1ncc(CN2CCC(CO)CC2)n1CC1CCCO1 (centres undefined)
2. CN(Cc1ncc[nH]1)S(=O)(=O)c1cccc(C(=O)N2CCOCC2)c1
3. Cc1cnn(CC(C)NCc2nc(-c3cccnc3)no2)c1 (centres undefined)
4. CC(CN1CCOCC1)NCc1nncn1C1CCCCC1 (centres undefined)

1. -65.7
2. -64.53
3. -19.9
4. 0.8698
